Provenance of the data: patent US20230011916A1

# target under test: T1, full-length human OX40 expressed on HuT78 cells (HuT78/OX40) (human, UniProt P43489 29-277)
# T1 sequence: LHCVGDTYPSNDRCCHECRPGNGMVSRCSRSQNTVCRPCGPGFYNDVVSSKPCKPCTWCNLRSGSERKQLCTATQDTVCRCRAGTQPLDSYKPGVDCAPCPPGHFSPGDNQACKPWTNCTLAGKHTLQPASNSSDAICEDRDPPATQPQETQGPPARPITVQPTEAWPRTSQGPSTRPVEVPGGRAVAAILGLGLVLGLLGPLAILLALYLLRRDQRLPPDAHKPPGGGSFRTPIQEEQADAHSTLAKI
# experimental protocol: FACS; cells not named on the sheet, HuT78/OX40 cells as in Example 5
measurement label: Top(MFI)
Answers are plain numbers, in MFI.

445-2 with K28T in the heavy chain and S24R in the light chain (antibody, human IgG1, V domains shown) VH: QVQLVQSGAEVKKPGSSVKVSCKASGYTFTSYIIHWVRQAPGQGLEWMGYINPYNEGTRYAQKFQGRVTLTADKSTSTAYMELSSLRSEDTAVYYCARGYYGSSYAMDYWGQGTTVTVSS VL: DIQMTQSPSSLSASVGDRVTITCRASQGISNYLNWYQQKPGKAIKLLIYDASTLYSGVPSRFSGSGSGTDFTLTISSLQPEDFATYYCQQYSKLPYTFGGGTKVEIK	750

Next up:
Q: What Top(MFI) value was documented for this binder, 445-3(T30S)-3(S24R) (antibody, V domains shown) VH: QVQLVQSGAEVKKPGSSVKVSCKASGYKFSSYIIHWVRQAPGQGLEWMGYINPYNEGTRYAQKFQGRVTLTADKSTSTAYMELSSLRSEDTAVYYCARGYYGSSYAMDYWGQGTTVTVSS VL: DIQMTQSPSSLSASVGDRVTITCRASQGISNYLNWYQQKPGKAIKLLIYDASTLYSGVPSRFSGSGSGTDFTLTISSLQPEDFATYYCQQYSKLPYTFGGGTKVEIK ?
Ans: 800
